molecular target: human α2β3γ2 GABAARs (benzodiazepine site) (Homo sapiens (Human), UniProt P18507+P47869); experiment: In vitro radioligand binding assay ([3H]Ro15-1788 displacement), α2-GABAAR Ki
Sequence (P47869 29-451): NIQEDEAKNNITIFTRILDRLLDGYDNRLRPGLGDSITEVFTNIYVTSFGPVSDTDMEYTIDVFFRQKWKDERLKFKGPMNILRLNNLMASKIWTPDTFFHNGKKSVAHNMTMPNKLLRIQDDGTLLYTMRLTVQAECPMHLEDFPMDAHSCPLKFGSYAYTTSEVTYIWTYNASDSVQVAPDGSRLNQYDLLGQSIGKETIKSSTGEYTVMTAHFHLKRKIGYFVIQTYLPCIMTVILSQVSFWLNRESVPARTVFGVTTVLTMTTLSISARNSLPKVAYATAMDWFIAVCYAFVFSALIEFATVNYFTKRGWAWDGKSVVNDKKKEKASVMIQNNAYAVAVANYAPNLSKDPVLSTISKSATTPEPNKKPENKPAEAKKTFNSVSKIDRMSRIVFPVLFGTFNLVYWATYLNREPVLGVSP
Sequence (P28472 26-473 partner): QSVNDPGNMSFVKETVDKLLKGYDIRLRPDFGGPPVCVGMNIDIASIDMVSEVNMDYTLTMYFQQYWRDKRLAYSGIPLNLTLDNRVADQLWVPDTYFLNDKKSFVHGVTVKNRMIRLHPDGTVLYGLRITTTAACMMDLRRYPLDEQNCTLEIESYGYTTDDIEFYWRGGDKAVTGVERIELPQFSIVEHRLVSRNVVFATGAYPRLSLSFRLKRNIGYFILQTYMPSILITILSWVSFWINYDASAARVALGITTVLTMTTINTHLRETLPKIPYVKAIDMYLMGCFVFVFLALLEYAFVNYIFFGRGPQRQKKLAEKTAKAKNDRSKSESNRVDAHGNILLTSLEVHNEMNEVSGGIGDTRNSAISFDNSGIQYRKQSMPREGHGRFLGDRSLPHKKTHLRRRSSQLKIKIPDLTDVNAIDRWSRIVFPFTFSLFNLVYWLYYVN
Sequence (P18507 40-475): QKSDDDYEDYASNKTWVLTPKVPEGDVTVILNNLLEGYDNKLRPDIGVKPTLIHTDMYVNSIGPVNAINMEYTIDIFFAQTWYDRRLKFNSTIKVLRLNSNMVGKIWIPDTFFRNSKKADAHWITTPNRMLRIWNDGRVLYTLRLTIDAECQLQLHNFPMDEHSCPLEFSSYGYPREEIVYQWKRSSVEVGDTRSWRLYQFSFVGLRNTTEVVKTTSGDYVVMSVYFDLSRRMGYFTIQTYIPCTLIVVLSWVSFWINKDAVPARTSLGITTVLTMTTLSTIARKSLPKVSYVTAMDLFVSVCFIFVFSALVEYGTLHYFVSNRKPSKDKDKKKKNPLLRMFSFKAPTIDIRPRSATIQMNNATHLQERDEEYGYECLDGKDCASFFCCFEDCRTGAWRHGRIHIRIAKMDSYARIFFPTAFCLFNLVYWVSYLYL
Structures can show the parent of a compound that is named as a salt.
Property name: log10(Ki) (log10 of the value in nM)

>  <Molecule>
CCCNC(=O)c1c(N)c2cccc(-c3cc(CN4CC5(CCOCC5)C4)ccc3F)c2[nH]c1=O [Example 141, hydrochloride]

>  <log10(Ki)>
0.42

$$$$
>  <Molecule>
CCCNC(=O)c1c(N)c2cccc(-c3cccc(OCc4ccc(F)cn4)c3)c2[nH]c1=O

>  <log10(Ki)>
0.38

$$$$
>  <Molecule>
CCCNC(=O)c1c(N)c2cccc(-c3ccnn3C)c2[nH]c1=O

>  <log10(Ki)>
0.91

$$$$
>  <Molecule>
CCCNC(=O)c1c(N)c2cccc(-c3cc(OCc4ccncc4)ccc3F)c2[nH]c1=O

>  <log10(Ki)>
-0.92

$$$$
>  <Molecule>
CCCNC(=O)c1c(N)c2cccc(-c3nc(C)ncc3F)c2[nH]c1=O

>  <log10(Ki)>
0.08

$$$$
>  <Molecule>
Cc1nn(C)cc1-c1cccc2c(N)c(C(=O)NCC3CC3)c(=O)n(C)c12

>  <log10(Ki)>
0.34

$$$$
>  <Molecule>
CCCNC(=O)c1c(N)c2cccc(-c3cn(C)nc3C)c2n(CC)c1=O

>  <log10(Ki)>
1.20

$$$$
>  <Molecule>
CCCNC(=O)c1c(N)c2cccc(-c3cc(CN4CC5(CCN(C)C5)C4)ccc3F)c2[nH]c1=O

>  <log10(Ki)>
0.03

$$$$
>  <Molecule>
CCCNC(=O)c1c(N)c2cccc(-c3cncnc3OC)c2[nH]c1=O

>  <log10(Ki)>
1.27

$$$$
